# pIC50 annotations
Target chain: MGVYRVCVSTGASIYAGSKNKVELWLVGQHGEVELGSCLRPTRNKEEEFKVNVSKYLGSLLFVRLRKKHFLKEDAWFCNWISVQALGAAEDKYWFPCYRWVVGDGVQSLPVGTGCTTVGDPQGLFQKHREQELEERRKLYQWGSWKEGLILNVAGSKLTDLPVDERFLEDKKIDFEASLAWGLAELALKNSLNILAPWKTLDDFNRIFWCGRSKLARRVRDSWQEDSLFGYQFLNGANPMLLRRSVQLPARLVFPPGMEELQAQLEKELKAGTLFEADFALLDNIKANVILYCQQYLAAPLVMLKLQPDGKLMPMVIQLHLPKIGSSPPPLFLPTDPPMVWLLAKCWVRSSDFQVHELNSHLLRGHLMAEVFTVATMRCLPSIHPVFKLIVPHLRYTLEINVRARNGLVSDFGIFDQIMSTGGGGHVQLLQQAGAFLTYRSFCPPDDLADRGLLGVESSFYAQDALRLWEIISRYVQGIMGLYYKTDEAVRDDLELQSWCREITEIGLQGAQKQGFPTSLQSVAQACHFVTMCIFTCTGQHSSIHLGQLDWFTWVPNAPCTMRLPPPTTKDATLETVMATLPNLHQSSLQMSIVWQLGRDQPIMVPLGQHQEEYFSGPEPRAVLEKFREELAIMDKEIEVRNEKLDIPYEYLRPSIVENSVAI
pIC50: −log10 of the molar value.
metric: pIC50

CC(C)=CCC/C(C)=C/CC/C(C)=C/CC[C@@](C)(O)CCc1c(C)c(O)c(C)c(C)c1O [αT3HQ, α-tocotrienol hydroquinone]
5.70
Cc1cc(O)cc(CC[C@](C)(O)CCC[C@H](C)CCC[C@H](C)CCCC(C)C)c1O [δTHQ, δ-tocopherol hydroquinone]
5.68
CC(C)=CCC/C(C)=C/CC/C(C)=C/CC[C@@](C)(O)CCc1cc(O)cc(C)c1O [δT3HQ, δ-tocotrienol hydroquinone]
5.86
Cc1c(C)c(O)c(CC[C@](C)(O)CCC[C@H](C)CCC[C@H](C)CCCC(C)C)c(C)c1O [αTHQ, α-tocopherol hydroquinone]
5.61
CC(C)=CCC/C(C)=C/CC/C(C)=C/CC[C@@](C)(O)CCc1cc(O)c(C)c(C)c1O [γT3HQ, γ-tocotrienol hydroquinone]
5.95
Cc1c(O)cc(CC[C@](C)(O)CCC[C@H](C)CCC[C@H](C)CCCC(C)C)c(O)c1C [γTHQ, γ-tocopherol hydroquinone]
5.66

---

Molecular target: Rabbit 15-lipoxygenase (rLOX15) (Oryctolagus cuniculus, UniProt P12530)
Construct: purchased Enzo Life Sciences, Inc. BML-PL015
Assay: Lipoxygenase enzyme inhibition assay
Assay type: biochemical
Conditions: rabbit 15-LO, compound 100 μM; read-out: 15-Lipoxygenase Enzyme Assay % activity at 100 μM
# activity at 100 µM annotations
metric: activity at 100 µM (%)

Cc1c(C)c2c(c(C)c1O)CC[C@@](C)(CCC(=O)O)O2
24
CC1=C(C)C(=O)C(CC[C@](C)(O)CCC[C@H](C)CCC[C@H](C)CCCC(C)C)=C(C)C1=O
75
Cc1c(C)c2c(c(C)c1O)CC[C@@](C)(CCC[C@H](C)CCC[C@H](C)CCCC(C)C)O2 [αT, α-tocopherol, reference compound]
78
CC(C)=CCC/C(C)=C/CC/C(C)=C/CC[C@]1(C)CCc2c(C)c(O)c(C)c(C)c2O1
64
CC(C)=CCC/C(C)=C/CC/C(C)=C/CC[C@@](C)(O)CCc1c(C)c(O)c(C)c(C)c1O [αT3HQ, α-tocotrienol hydroquinone]
9
Cc1c(C)c2c(c(C)c1O)CCC(C)(CCCC(C)CCCC(C)CCCC(C)C)C2 (centres unmarked)
77
CC(C)=CCC/C(C)=C/CC/C(C)=C/CC[C@]1(C)CCc2cc(O)cc(C)c2O1
46
Cc1c(O)cc2c(c1C)O[C@](C)(CCC[C@H](C)CCC[C@H](C)CCCC(C)C)CC2
34
CC(C)=CCC/C(C)=C/CC/C(C)=C/CC[C@@](C)(O)CCc1cc(O)cc(C)c1O [δT3HQ, δ-tocotrienol hydroquinone]
14
Cc1c(C)c(O)c(CC[C@](C)(O)CCC[C@H](C)CCC[C@H](C)CCCC(C)C)c(C)c1O [αTHQ, α-tocopherol hydroquinone]
15
Cc1cc(O)cc(CC[C@](C)(O)CCC[C@H](C)CCC[C@H](C)CCCC(C)C)c1O [δTHQ, δ-tocopherol hydroquinone]
17
Cc1cc(O)cc2c1O[C@](C)(CCC[C@H](C)CCC[C@H](C)CCCC(C)C)CC2
45
CC(C)=CCC/C(C)=C/CC/C(C)=C/CC[C@@](C)(O)CCc1cc(O)c(C)c(C)c1O [γT3HQ, γ-tocotrienol hydroquinone]
7
Cc1c(O)cc(CC[C@](C)(O)CCC[C@H](C)CCC[C@H](C)CCCC(C)C)c(O)c1C [γTHQ, γ-tocopherol hydroquinone]
18
